pIC50 overview
# TARGET_DESC: XPO1^C528S (Jurkat XPO1^C528S) (Homo sapiens, UniProt O14980, C528S)
# Construct: CRISPR/Cas9 genome editing of the Jurkat cell line was performed as in Neggers et al. [43] to generate a XPO1^C528S mutant cell line; endogenous in cells
# Sequence (O14980 whole entry C528S): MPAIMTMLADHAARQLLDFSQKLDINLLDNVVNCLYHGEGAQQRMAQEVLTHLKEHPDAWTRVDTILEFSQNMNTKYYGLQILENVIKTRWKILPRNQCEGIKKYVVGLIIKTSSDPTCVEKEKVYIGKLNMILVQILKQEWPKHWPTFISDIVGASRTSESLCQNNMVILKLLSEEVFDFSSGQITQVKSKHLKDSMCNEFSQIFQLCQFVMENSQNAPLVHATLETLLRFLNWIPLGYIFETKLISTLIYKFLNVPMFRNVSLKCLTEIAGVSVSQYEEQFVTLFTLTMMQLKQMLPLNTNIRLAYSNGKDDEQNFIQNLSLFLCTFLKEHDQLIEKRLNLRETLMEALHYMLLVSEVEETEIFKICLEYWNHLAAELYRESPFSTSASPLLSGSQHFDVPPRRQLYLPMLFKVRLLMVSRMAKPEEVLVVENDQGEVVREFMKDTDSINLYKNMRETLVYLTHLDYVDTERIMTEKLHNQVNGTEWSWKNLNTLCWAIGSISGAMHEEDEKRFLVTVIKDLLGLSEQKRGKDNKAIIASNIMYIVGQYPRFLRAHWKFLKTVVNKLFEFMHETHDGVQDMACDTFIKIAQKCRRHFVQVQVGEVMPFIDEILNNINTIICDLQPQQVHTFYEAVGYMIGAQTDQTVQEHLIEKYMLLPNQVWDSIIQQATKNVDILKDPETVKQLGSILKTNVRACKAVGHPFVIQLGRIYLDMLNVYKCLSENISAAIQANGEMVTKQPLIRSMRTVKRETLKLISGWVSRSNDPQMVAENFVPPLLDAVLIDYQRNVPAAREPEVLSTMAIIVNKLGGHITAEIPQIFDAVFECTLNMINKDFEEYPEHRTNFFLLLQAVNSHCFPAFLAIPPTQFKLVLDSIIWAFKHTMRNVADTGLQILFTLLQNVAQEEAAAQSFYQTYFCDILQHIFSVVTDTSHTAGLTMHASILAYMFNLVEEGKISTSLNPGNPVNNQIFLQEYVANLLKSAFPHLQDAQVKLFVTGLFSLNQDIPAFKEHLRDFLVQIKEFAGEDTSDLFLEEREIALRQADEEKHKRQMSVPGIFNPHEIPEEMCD
# ASSAY_DETAILS: RanBP1 immunofluorescence (XPO1-mediated nuclear export) in mutant XPO1^C528S Jurkat cells
# TEST_PARAMETERS: nuclear export of RanBP1 cargo; mutant XPO1^C528S Jurkat; 3 h; mean ± SD of two independent experiments; read-out: IC50 XPO1 inhibition Jurkat XPO1^C528S
pIC50: −log10 of the molar value.

| SMILES_RECORD | pIC50 |
| --- | --- |
| COc1cc(OC)cc(C(=O)/C=C/c2cncnc2)c1 | < 5.30 |

Consider now this further compound.
Inquiry: Check the records and state pIC50 for O=C(/C=C/c1cncnc1)c1ccc2ccccc2c1
Reply text: < 5.30
